Test: Enzyme screens for resolution of racemic N-(methoxycarbonyl)-4,4-dimethoxy-D,L-proline methyl ester (Example 8, comparative)
Assay type: biochemical
Conditions: 0.100M racemate; 0.25M potassium phosphate pH 7.0; 6 h or 17 h; 5.0 to 30 mg/mL enzyme; 25° C.
Measured Property: conv. (percent conversion of the racemate) (%)
Give your result in % as a bare value.

### Prompt Bench note: what conv. (percent conversion of the racemate) did protease, trypsin bovine pancreas: commercial trypsin, source bovine pancreas (protein, UniProt P00760 24-246, looked up) Serine protease 1: IVGGYTCGANTVPYQVSLNSGYHFCGGSLINSQWVVSAAHCYKSGIQVRLGEDNINVVEGNEQFISASKSIVHPSYNSNTLNNDIMLIKLKSAASLNSRVASISLPTSCASAGTQCLISGWGNTKSSGTSYPDVLKCLKAPILSDSSCKSAYPGQITSNMFCAGYLEGGKDSCQGDSGGPVVCSGKLQGIVSWGSGCAQKNKPGVYTKVCNYVSWIKQTIASN show?
### Response 0
